Molecular target: Tyrosine-protein kinase JAK2 (Homo sapiens, UniProt O60674)
Sequence (O60674 whole entry): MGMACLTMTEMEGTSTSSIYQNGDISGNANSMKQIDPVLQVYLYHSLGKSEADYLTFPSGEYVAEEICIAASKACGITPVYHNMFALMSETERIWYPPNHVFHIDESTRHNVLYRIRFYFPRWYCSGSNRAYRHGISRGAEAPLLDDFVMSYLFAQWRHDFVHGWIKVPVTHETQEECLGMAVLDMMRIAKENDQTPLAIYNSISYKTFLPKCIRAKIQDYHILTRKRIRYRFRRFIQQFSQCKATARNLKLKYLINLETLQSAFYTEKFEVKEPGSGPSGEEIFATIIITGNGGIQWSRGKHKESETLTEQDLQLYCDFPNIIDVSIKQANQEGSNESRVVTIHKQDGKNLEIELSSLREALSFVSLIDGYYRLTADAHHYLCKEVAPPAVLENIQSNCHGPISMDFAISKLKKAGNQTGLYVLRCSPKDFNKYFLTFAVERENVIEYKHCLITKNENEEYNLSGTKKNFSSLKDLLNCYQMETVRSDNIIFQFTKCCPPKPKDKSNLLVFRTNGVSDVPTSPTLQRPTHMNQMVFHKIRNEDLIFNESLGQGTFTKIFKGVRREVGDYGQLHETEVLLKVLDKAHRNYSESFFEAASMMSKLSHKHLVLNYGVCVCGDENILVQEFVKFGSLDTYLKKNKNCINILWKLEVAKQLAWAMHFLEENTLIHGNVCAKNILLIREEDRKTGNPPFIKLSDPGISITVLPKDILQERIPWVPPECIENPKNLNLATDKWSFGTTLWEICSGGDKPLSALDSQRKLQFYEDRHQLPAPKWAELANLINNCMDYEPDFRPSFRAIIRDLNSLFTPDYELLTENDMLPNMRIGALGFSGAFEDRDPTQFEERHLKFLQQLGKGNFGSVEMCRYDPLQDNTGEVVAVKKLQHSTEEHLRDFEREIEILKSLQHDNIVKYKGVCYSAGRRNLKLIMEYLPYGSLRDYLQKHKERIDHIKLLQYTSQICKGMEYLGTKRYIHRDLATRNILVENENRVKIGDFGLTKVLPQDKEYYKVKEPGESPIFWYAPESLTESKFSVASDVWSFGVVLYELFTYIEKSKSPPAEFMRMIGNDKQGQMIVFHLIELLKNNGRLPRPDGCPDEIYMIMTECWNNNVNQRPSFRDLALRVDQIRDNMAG
Assay: Inhibition of JAK2 signaling pathway in human UKE-1 cells assessed as reduction of cell proliferation
Type: toxicity, cell-based
assay_readout: IC50 (nM)
Numeric answer only, unit nM assumed.

Problem: // query IC50 value for entry `COc1cc(Nc2ncc(C)c(Nc3ccc4oc(=O)[nH]c4c3)n2)cc(C)c1F`
Result: 915

* * *

Experiment: Oral bioavailability in Sprague-Dawley rat 5 mg/kg
Type: ADME, organism-based
Conditions: in vivo
assay_readout: bioavailability (%)
Numeric answer only, unit % assumed.

Problem: // query bioavailability value for entry `COc1cc(Nc2ncc(C)c(Nc3ccc4oc(=O)[nH]c4c3)n2)cc(C)c1F`
Result: 28

Problem: // query bioavailability value for entry `Cc1cnc(Nc2ccc(N3CCN(C)CC3)nc2)nc1Nc1ccc2oc(=O)[nH]c2c1`
Result: 4

Problem: // query bioavailability value for entry `COc1cc(Nc2ncc(C)c(Nc3ccc4oc(=O)[nH]c4c3)n2)cc(C)c1F.O=S(=O)(O)c1ccccc1`
Result: 37

* * *

Molecular target: Cytochrome P450 3A4 (Homo sapiens)
Sequence (P08684 whole entry): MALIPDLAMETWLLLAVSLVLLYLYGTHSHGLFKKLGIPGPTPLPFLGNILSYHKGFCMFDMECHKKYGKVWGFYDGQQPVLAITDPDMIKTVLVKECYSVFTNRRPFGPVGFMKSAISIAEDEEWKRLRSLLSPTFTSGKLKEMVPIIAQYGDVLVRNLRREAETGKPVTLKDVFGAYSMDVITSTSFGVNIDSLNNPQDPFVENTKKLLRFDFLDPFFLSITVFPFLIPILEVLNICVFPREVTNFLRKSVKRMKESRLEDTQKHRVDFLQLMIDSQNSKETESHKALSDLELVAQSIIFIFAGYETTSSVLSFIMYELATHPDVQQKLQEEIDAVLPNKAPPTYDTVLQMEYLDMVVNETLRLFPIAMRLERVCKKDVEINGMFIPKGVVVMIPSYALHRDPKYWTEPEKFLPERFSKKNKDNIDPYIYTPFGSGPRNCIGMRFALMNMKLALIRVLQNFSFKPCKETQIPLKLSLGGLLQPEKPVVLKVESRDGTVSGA
Experiment: Inhibition of CYP3A4 (unknown origin) in presence of NADPH
Format: ADME
pIC50: −log10 of the molar value.
Rule: pIC50 of 6 or more gives Satisfied; anything lower gives Not satisfied.

Problem: Hello, I need to know if `COc1cc(C)cc(Nc2ncc(C)c(Nc3ccc4oc(=O)[nH]c4c3)n2)c1` has measured pIC50 not below 6. Thanks!
Result: Not satisfied

Problem: Hello, I need to know if `COc1cc(CF)cc(Nc2ncc(C)c(Nc3ccc4oc(=O)[nH]c4c3)n2)c1` has measured pIC50 not below 6. Thanks!
Result: Not satisfied

Problem: Hello, I need to know if `COc1cc(Nc2ncc(C)c(Nc3ccc4oc(=O)[nH]c4c3)n2)cc(C(F)(F)F)c1` has measured pIC50 not below 6. Thanks!
Result: Satisfied

Problem: Hello, I need to know if `COc1cc(Nc2ncc(C)c(Nc3ccc4oc(=O)[nH]c4c3)n2)cc(C)c1F` has measured pIC50 not below 6. Thanks!
Result: Not satisfied

Problem: Hello, I need to know if `COc1cc(Nc2ncc(C)c(Nc3ccc4oc(=O)[nH]c4c3)n2)cc(C)c1OC` has measured pIC50 not below 6. Thanks!
Result: Not satisfied

Problem: Hello, I need to know if `COc1cc(Nc2ncc(C)c(Nc3ccc4oc(=O)[nH]c4c3)n2)cc(C(F)F)c1` has measured pIC50 not below 6. Thanks!
Result: Not satisfied

Problem: Hello, I need to know if `Cc1cnc(Nc2ccc(N3CCN(C)CC3)nc2)nc1Nc1ccc2oc(=O)[nH]c2c1` has measured pIC50 not below 6. Thanks!
Result: Not satisfied

Problem: Hello, I need to know if `COc1cc(Nc2ncc(C)c(Nc3ccc4oc(=O)[nH]c4c3)n2)cc(C)c1C` has measured pIC50 not below 6. Thanks!
Result: Not satisfied

Problem: Hello, I need to know if `COc1ccc(Nc2ncc(C)c(Nc3ccc4oc(=O)[nH]c4c3)n2)cc1C(F)(F)F` has measured pIC50 not below 6. Thanks!
Result: Satisfied

* * *

Assay: Clearance in Sprague-Dawley rat 1 mg/kg, iv
Assay type: ADME, organism-based
Conditions: in vivo
assay_readout: clearance

Problem: // query clearance value for entry `COc1cc(Nc2ncc(C)c(Nc3ccc4oc(=O)[nH]c4c3)n2)cc(C)c1F`
Result: 47 mL/min/kg
